# System: Pseudomonas aeruginosa PAO1 MB9798 (efflux+, IMP-1)
# measurement_parameters: ratio MITC95 PA 9798/MITC95 PA 9799; imipenem at 2 μg/mL
measured_endpoint: Efflux ratio
Field format: numeric only.

Nc1nc2c(-c3ccc(S(=O)(=O)N[C@H]4CNC[C@H]4N)c(S(N)(=O)=O)c3-c3nn[nH]n3)cccc2[nH]1    0.83

Task item: Entry "Cc1ccc(-c2ccc(S(=O)(=O)N[C@@H]3CCNC3)c(S(N)(=O)=O)c2-c2nn[nH]n2)c2nc(N)[nH]c12" has what Efflux ratio?
Reply: 1.00

Task item: How about this molecule: "NCCNS(=O)(=O)c1ccc(-c2ccc3ncn(CCN)c3c2)c(-c2nn[nH]n2)c1S(N)(=O)=O"
Reply: 4.00

Task item: How about this molecule: Nc1nc2c(-c3ccc(S(=O)(=O)NC4(CO)CCNC4)c(S(N)(=O)=O)c3-c3nnn[nH]3)cccc2s1 (stereo not shown) [Example 84]
Reply: 1.00

###

# System: Pseudomonas aeruginosa PAO1 MB9798 (efflux+, IMP-1)
# measurement_parameters: ratio MITC95 PA 9798/MITC95 PA 9799; imipenem at 2 μg/mL
measured_endpoint: Efflux ratio
Field format: numeric only.

Consider the worked cases shown below.
Nc1nc2c(-c3ccc(S(=O)(=O)NCC(=O)O)c(S(N)(=O)=O)c3-c3nn[nH]n3)cccc2s1    1.00
NC[C@@H](N)CNS(=O)(=O)c1ccc(-c2cccc3ccc(N)nc23)c(-c2nn[nH]n2)c1S(N)(=O)=O    1.00
Nc1ncccc1-c1ccc(S(=O)(=O)NC[C@@H](N)CO)c(S(N)(=O)=O)c1-c1nn[nH]n1    8.00
CN1CCCC(NS(=O)(=O)c2ccc(-c3cccc4sc(N)nc34)c(-c3nnn[nH]3)c2S(N)(=O)=O)C1 (stereo not shown)    1.00
Nc1nc2c(-c3ccc(S(=O)(=O)N4CC5(CCNC5)C4)c(S(N)(=O)=O)c3-c3nnn[nH]3)cccc2s1    1.00
NC[C@@H](O)CNS(=O)(=O)c1ccc(-c2ccc(N)nc2)c(-c2nn[nH]n2)c1S(N)(=O)=O    1.00

Task item: Entry "NCCNC(=O)c1cccc(-c2ccc(S(=O)(=O)NCCN)c(S(N)(=O)=O)c2-c2nn[nH]n2)c1" has what Efflux ratio?
Reply: 2.00

Task item: How about this compound: "NCc1nc2cc(-c3ccc(S(=O)(=O)N[C@@H]4CCNC4)c(S(N)(=O)=O)c3-c3nn[nH]n3)ccc2s1"
Reply: 1.00

Task item: How about this compound: Nc1nc2c(-c3ccc(S(=O)(=O)NCC4CCNC4)c(S(N)(=O)=O)c3-c3nnn[nH]3)cccc2s1.O=CO (stereo not shown)
Reply: 0.50

Task item: How about this compound: "NCCNS(=O)(=O)c1ccc(-c2cccc3nonc23)c(-c2nn[nH]n2)c1S(N)(=O)=O"
Reply: 8.00

Task item: How about this compound: "Nc1ncccc1-c1ccc(S(=O)(=O)NC[C@@H]2CNCCN2)c(S(N)(=O)=O)c1-c1nn[nH]n1"
Reply: 2.00

Task item: How about this compound: "NC[C@H](CO)NS(=O)(=O)c1ccc(-c2ccnc(N)c2)c(-c2nn[nH]n2)c1S(N)(=O)=O"
Reply: 2.00

Task item: How about this compound: "NCc1nc2c(-c3ccc(S(=O)(=O)N[C@H](CN)CO)c(S(N)(=O)=O)c3-c3nn[nH]n3)cccc2s1"
Reply: 4.00

###

# System: Pseudomonas aeruginosa PAO1 MB9798 (efflux+, IMP-1)
# measurement_parameters: ratio MITC95 PA 9798/MITC95 PA 9799; imipenem at 2 μg/mL
measured_endpoint: Efflux ratio
Field format: numeric only.

Consider the worked cases shown below.
Nc1nc2c(-c3ccc(S(=O)(=O)N4CC[S+]([O-])CC4)c(S(N)(=O)=O)c3-c3nnn[nH]3)cccc2s1 [Example 44]    2.00
NCc1nc2c(-c3ccc(S(=O)(=O)N[C@@H]4CCNC4)c(S(N)(=O)=O)c3-c3nn[nH]n3)cccc2s1 [Example 276]    1.00
Nc1nc2c(-c3ccc(S(=O)(=O)NC[C@@H]4CCNC4)c(S(N)(=O)=O)c3-c3nnn[nH]3)cccc2s1 [Example 75]    1.00

Task item: Entry N[C@H]1CNC[C@H]1NS(=O)(=O)c1ccc(-c2cnc3cc[nH]c3c2)c(-c2nn[nH]n2)c1S(N)(=O)=O [Example 320] has what Efflux ratio?
Reply: 2.00

Task item: How about this molecule: C[C@H](CN)NS(=O)(=O)c1ccc(-c2cncc(N)c2)c(-c2nn[nH]n2)c1S(N)(=O)=O [Example 221]
Reply: 1.00

Task item: How about this molecule: Nc1nc2c(-c3ccc(S(=O)(=O)NC4CNC4)c(S(N)(=O)=O)c3-c3nn[nH]n3)cccc2s1 [Example 146]
Reply: 0.50

Task item: How about this molecule: Nc1nc2c(-c3ccc(S(=O)(=O)N[C@H]4CN[C@@H](C(=O)O)C4)c(S(N)(=O)=O)c3-c3nnn[nH]3)cccc2s1 [Example 82]
Reply: 0.50

Task item: How about this molecule: NCCNS(=O)(=O)c1ccc(-c2ccc(N)nc2)c(-c2nn[nH]n2)c1S(N)(=O)=O [Example 196]
Reply: 1.00

Task item: How about this molecule: NCCNS(=O)(=O)c1ccc(-c2cccc3sc(CN)nc23)c(-c2nn[nH]n2)c1S(N)(=O)=O [Example 345]
Reply: 1.00

Task item: How about this molecule: NCc1csc(Nc2cccc(-c3ccc(S(=O)(=O)N[C@@H]4CCNC4)c(S(N)(=O)=O)c3-c3nn[nH]n3)c2)n1 [Example 290]
Reply: 2.00

###

# System: Pseudomonas aeruginosa PAO1 MB9798 (efflux+, IMP-1)
# measurement_parameters: ratio MITC95 PA 9798/MITC95 PA 9799; imipenem at 2 μg/mL
Measured Efflux ratio values are reported for all entries that follow.
Field format: numeric only.

Nc1nc2c(-c3ccc(S(=O)(=O)NC[C@H]4CCNC4)c(S(N)(=O)=O)c3-c3nn[nH]n3)cccc2[nH]1    1.00

Task item: Entry Nc1nc2c(-c3ccc(S(=O)(=O)NC4(CO)CCNC4)c(S(N)(=O)=O)c3-c3nnn[nH]3)cccc2s1 (centres unmarked) [Example 83] has what Efflux ratio?
Reply: 0.50

Task item: How about this compound: "Nc1nc2c(-c3ccc(S(=O)(=O)NCC4(O)CCNCC4)c(S(N)(=O)=O)c3-c3nnn[nH]3)cccc2s1"
Reply: 0.50

Task item: How about this compound: "NCCCNC(=O)c1cccc(-c2ccc(S(=O)(=O)NCCN)c(S(N)(=O)=O)c2-c2nn[nH]n2)c1"
Reply: 2.00

Task item: How about this compound: "Nc1nc2c(-c3ccc(S(=O)(=O)NC[C@@H](N)C(=O)O)c(S(N)(=O)=O)c3-c3nn[nH]n3)cccc2s1"
Reply: 0.50

###

# System: Pseudomonas aeruginosa PAO1 MB9798 (efflux+, IMP-1)
# measurement_parameters: ratio MITC95 PA 9798/MITC95 PA 9799; imipenem at 2 μg/mL
measured_endpoint: Efflux ratio
Field format: numeric only.

Consider the worked cases shown below.
NS(=O)(=O)c1c(S(=O)(=O)N[C@@H]2CCNC2)ccc(-c2cccn3ccnc23)c1-c1nn[nH]n1 [Example 291]    1.00
Nc1nc2c(-c3ccc(S(=O)(=O)N[C@@H]4CNC[C@@H]4O)c(S(N)(=O)=O)c3-c3nnn[nH]3)cccc2[nH]1 [Example 170]    1.00

Shift focus to the following entry.
Task item: Entry Nc1nc2c(-c3ccc(S(=O)(=O)N4CCC[C@@H](N)C4)c(S(N)(=O)=O)c3-c3nnn[nH]3)cccc2s1 [Example 68] has what Efflux ratio?
Reply: 2.00
